- Method Summary: Oral bioavailability in rat at 1 mg/kg administered as cassette dose
- Type: ADME, organism-based
- Condition Description: in vivo
Measured Metric: bioavailability (%)
Give the quantity in %, number only.

What does the data say about its bioavailability? Entry: CCN(CC)c1ccc(Cl)c2nc3n(c12)CCCN3c1ccc(Cl)cc1Cl
4.1

====

- Method Summary: Lipophilicity, log D of the compound at pH 7.4
- Assay type: physicochemical
- Condition Description: buffer
The following compounds are shown together with reported logD values.
# respond with the number and nothing more

Consider the reported logD for these compounds:
- Compound: "CCc1nc(C)nc(CC)c1N1CCCn2c1nc1c(Cl)ccc(C(OC(F)F)C(F)(F)F)c12 (racemic)"
  Value Reported: 3.52
- Compound: "CCC(=O)c1ccc(Cl)c2nc3n(c12)CCCN3c1ccc(Cl)cc1Cl"
  Value Reported: 4.01
- Compound: "COc1nc(C)nc(OC)c1N1CCCn2c1nc1c(Cl)ccc(C(OC(F)F)C(F)(F)F)c12 (racemic)"
  Value Reported: 3.71
- Compound: "CCC(c1ccc(Cl)c2nc3n(c12)CCCN3c1ccc(Cl)cc1Cl)n1ccnc1 (stereo not given)"
  Value Reported: 3.53
- Compound: "COc1nc(C)c(N2CCCn3c2nc2c(Cl)ccc(C(OC(F)F)C(F)(F)F)c23)c(C)n1 (racemic)"
  Value Reported: 3.08

What does the data say about its logD? Entry: CCC(OC)c1ccc(Cl)c2nc3n(c12)CCCN3c1ccc(Cl)cc1Cl (stereo not given)
4.38

What does the data say about its logD? Entry: Cc1nc(C)c(N2CCCn3c2nc2c(Cl)ccc(C(OC(F)F)C(F)(F)F)c23)c(C)n1 (racemic)
2.87

What does the data say about its logD? Entry: COc1nc(C)c(N2CCCn3c2nc2c(Cl)ccc([C@@H](OC(F)F)C(F)(F)F)c23)c(C)n1
3.18

What does the data say about its logD? Entry: FC(F)OC(c1ccc(Cl)c2nc3n(c12)CCCN3c1ccc(Cl)cc1Cl)C(F)(F)F (racemic)
4.3

What does the data say about its logD? Entry: COc1ccc(N2CCCn3c2nc2c(Cl)ccc(C(OC(F)F)C(F)(F)F)c23)c(C)n1 (racemic)
3.43

What does the data say about its logD? Entry: CCC(C#N)c1ccc(Cl)c2nc3n(c12)CCCN3c1ccc(Cl)cc1Cl (stereo not given)
3.69

What does the data say about its logD? Entry: CCC(O)c1ccc(Cl)c2nc3n(c12)CCCN3c1ccc(Cl)cc1Cl (stereo not given)
3.57

What does the data say about its logD? Entry: CCc1nc(C)c(N2CCCn3c2nc2c(Cl)ccc(C(OC(F)F)C(F)(F)F)c23)c(C)n1 (racemic)
3.21

What does the data say about its logD? Entry: CCN(CC)c1ccc(Cl)c2nc3n(c12)CCCN3c1ccc(Cl)cc1Cl
5.25

What does the data say about its logD? Entry: COc1ccc(N2CCCn3c2nc2c(Cl)ccc(C(OC(F)F)C(F)(F)F)c23)c(C)c1 (racemic)
3.76

====

- Method Summary: Oral bioavailability in rat at 5 mg/kg administered as cassette dose
- Assay type: ADME, organism-based
- Condition Description: in vivo
Measured Metric: bioavailability (%)
Give the quantity in %, number only.

What does the data say about its bioavailability? Entry: COc1nc(C)c(N2CCCn3c2nc2c(Cl)ccc([C@@H](OC(F)F)C(F)(F)F)c23)c(C)n1
68
